// cross-source set; read-out = IC50; system = Prothrombin (Homo sapiens, UniProt P00734)
MEASURED PARAMETER: IC50

>>> df
                                   compound  measured_parameter          result
0  O=C(c1ccsc1)n1nc(-c2ccn(Cc3ccccn3)c(=O)c2)cc1NCc1ccc(Cl)s1                IC50        < 100 nM
1  C=CCOC(=O)N1CCC(c2cc(NCc3ccc(Cl)s3)n(C(=O)C(C)(C)C)n2)C1 (stereo not drawn)                IC50        < 100 nM
2  COCC(C)(C)C(=O)n1nc(C2(C)CCCN(C(=O)OC(C)(C)C)C2)cc1NCc1ccc(Cl)s1 (stereo not drawn)                IC50  100 to 1000 nM
3  FC(F)(F)CN1CCC(c2cc(NCc3ccc(Cl)s3)[nH]n2)CC1                IC50     > 100000 nM
4  O=C(c1ccsc1)n1nc(C2CCOCC2)c(F)c1NCc1ccc(Cl)s1                IC50        < 100 nM
5  C=CCOC(=O)N1CCN(C(=O)N2CCOCC2)CC1c1cc(NCc2ccc(Cl)s2)[nH]n1 (stereo not drawn)                IC50     > 100000 nM
